# Assay comment: Drug metabolism in microsomes (unknown origin) assessed as retention time treated with 10 uM triclocarban by LC-UV-MS method
# Format: ADME, Microsome
Field: label. Allowed values: met (Retention_time < 4 min) or not met (Retention_time >= 4 min).

O=C(Nc1ccc(Cl)c(Cl)c1)Nc1ccc(Cl)cc1O; not met
O=C(Nc1ccc(Cl)cc1)Nc1cc(Cl)c(Cl)cc1O; not met
O=C(Nc1ccc(Cl)c(O)c1)Nc1ccc(Cl)c(Cl)c1; not met
O=C(Nc1ccc(Cl)c(Cl)c1)Nc1ccc(Cl)cc1OC1O[C@H](C(=O)O)[C@@H](O)[C@H](O)[C@H]1O (stereo partly specified); met
O=C(Nc1ccc(Cl)c(Cl)c1)Nc1ccc(Cl)cc1OS(=O)(=O)O; met
O=C(Nc1ccc(Cl)cc1)Nc1ccc(Cl)cc1; not met

The origin of these recorded values is ChEMBL document CHEMBL3525967.
